The measured values listed here are drawn from patent US20230025510A1.

Tested on: Ba/F3-EGFR WT cells
test-name: Cell proliferation suppression test (CellTiter-Glo, GI50), Ba/F3-EGFR WT
Type: cell-based
condition-description: Mus musculus, 72 h, 100 ng/mL EGF, 3 days, N=4
Description: Cell proliferation suppression test Ba/F3-Mock, Ba/F3-EGFR WT, Ba/F3-EGFR ins. ASV, and Ba/F3-EGFR ins. […] On the day of the compound addition (day 0) and 3 days after the compound addition (day 3), ATP quantity was measured with CellTiter-Glo (registered trademark) 2.0 (Promega Corporation.), and used as an indicator of cell quantity (N=4). […] Concentrations at which cell proliferation from day 0 to day 3 was inhibited by 50% (GIso) were calculated with EXCEL.
Note to self: GI50 under 200 nM means T, ties and anything higher get F.

chemical-smiles: [2H]C([2H])([2H])Oc1cc2ncnc(Nc3ccc(Oc4ccn(C(=O)NC(C)(C)C)n4)cc3F)c2cc1OC1CCN(C(=O)C=C)CC1
system-name: Ba/F3-EGFR WT cells
class: T
//
chemical-smiles: C=CC(=O)N1CCC(Oc2cc3c(Nc4ccc(Oc5ccn(C(=O)N[C@H](C)C(F)(F)F)n5)cc4F)ncnc3cc2OC)CC1
system-name: Ba/F3-EGFR WT cells
class: T
//
chemical-smiles: COc1cc2ncnc(Nc3ccc(Oc4nc(-c5nnc(C6CC6)o5)cs4)cc3F)c2cc1NC(=O)/C=C/CN1CC[C@@H](F)C1
system-name: Ba/F3-EGFR WT cells
class: F
//
chemical-smiles: C=CC(=O)N1CCC(Oc2cc3c(Nc4cc(F)c(Oc5ccn(C(=O)NC(C)(C)C)n5)cc4F)ncnc3cc2OC)CC1
system-name: Ba/F3-EGFR WT cells
class: T
//
chemical-smiles: C=CC(=O)N1CCC(Oc2cc3c(Nc4ccc(Oc5cccc(-c6nnc(C)o6)c5)cc4F)ncnc3cc2OCF)CC1
system-name: Ba/F3-EGFR WT cells
class: F
//
chemical-smiles: C=CC(=O)N1CCC(Oc2cc3c(Nc4ccc(Oc5ccn(C(=O)NC6(C(F)(F)F)CC6)n5)cc4F)ncnc3cc2OC)CC1
system-name: Ba/F3-EGFR WT cells
class: T
//
chemical-smiles: C=CC(=O)N1CCC(Oc2cc3c(Nc4ccc(Oc5ccn(-c6ccnc(Cl)c6)n5)cc4F)ncnc3cc2OC)CC1
system-name: Ba/F3-EGFR WT cells
class: T
